Data origin, for the record: PubChem BioAssay AID1159580

assay: chemical genetic growth profiling, strain panel (AID 1159580);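 further: tested at 20 µM; growth read once vehicle control cultures reached saturation at 30 °C; 1 = growth at the plate median or of vehicle wells; lower values mean less growth of the strain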; details: S. cerevisiae deletion strains, growth OD, locus YDR363W, strain ESC2, active compounds read low
Screen size: about 5,500 compounds; about 2,000 (36%) were called active. Inconclusive results (about 18%) are left out. This is one part of the list.
ENDPOINT_LABEL: normalized growth
Form: value (number only, do not type unit).

# count of solved cases: 8
query: Request the reported normalized growth associated with Nc1ncnc2c1ncn2[C@@H]1O[C@H](CO)[C@H](O)C1O (some centres undefined)
result: 1.01

query: Request the reported normalized growth associated with CSC(N)=NCCC[C@H](N)C(=O)O
result: 0.997

query: Request the reported normalized growth associated with COc1cc2c(c(OC)c1OC)-c1ccc(OC)c(=O)cc1C(NC(C)=O)CC2 (centres undefined)
result: 1

query: Request the reported normalized growth associated with O=C(O)CCCC[C@@H]1CCSS1
result: 0.971

query: Request the reported normalized growth associated with COc1cc(C(O)CN)ccc1O (centres undefined)
result: 1.02

query: Request the reported normalized growth associated with CC(C)NC[C@@H](O)c1ccc(O)c(O)c1
result: 1

query: Request the reported normalized growth associated with Clc1ccc(N2CC3CCC(C2)N3)nn1
result: 1.01

query: Request the reported normalized growth associated with CN(C)CCOC(C)(c1ccccc1)c1ccccn1 (centres undefined)
result: 0.994

Please turn your attention to the following entry.
query: Request the reported normalized growth associated with CN1CCC(c2c[nH]c3ccc(O)cc23)CC1
result: 1

---

Each entry below carries its reported normalized growth.
experiment: chemical genetic growth profiling, strain panel (AID 1159580); conditions: S. cerevisiae deletion strains, growth OD, locus YPL106C, strain sse1, active compounds read low
In all, about 5,500 compounds went through this assay and about 2,000 (36%) were called active. Inconclusive results (about 18%) are left out. This is one part of the list.

# count of solved cases: 5
query: Request the reported normalized growth associated with C1CCN2CC3CC(CN4CCCCC34)C2C1 (configuration not stated)
result: 1.04 (inactive)

query: Request the reported normalized growth associated with CCC(Cc1c(I)cc(I)c(N)c1I)C(=O)O (configuration not stated)
result: 0.951 (inactive)

query: Request the reported normalized growth associated with CC(C)=CCC/C(C)=C/CC/C(C)=C/CC/C(C)=C/CC/C(C)=C/CC/C(C)=C/CC/C(C)=C/CC/C(C)=C/CC/C(C)=C/CO
result: 1 (inactive)

query: Request the reported normalized growth associated with COC(C)(C)CCC[C@H](C)C/C=C/C(C)=C/C(=O)OC(C)C
result: 1.05 (inactive)

query: Request the reported normalized growth associated with Oc1c(I)cc(Cl)c2cccnc12
result: 0.139 (active)

Further cases:
query: Request the reported normalized growth associated with CC(=O)O[C@H]1C[C@@H](OC(C)=O)C(C)(C)C2C[C@@H](OC(C)=O)[C@@]3(C)C4=CC(=O)O[C@@H](c5ccoc5)[C@]4(C)CCC3[C@]21C (some centres not stated)
result: 0.975 (inactive)

query: Request the reported normalized growth associated with CC(C)=CCC[C@](C)(O)C1CC=C(C)CC1 (some centres not stated)
result: 0.981 (inactive)

---

assay: chemical genetic growth profiling, strain panel (AID 1159580); details: S. cerevisiae deletion strains, growth OD, locus YGL253W, strain hxk2, active compounds read low
About 2,000 (36%) of roughly 5,500 compounds were called active. Another 18% or so got no clear call; they are omitted. Some of the results follow.
ENDPOINT_LABEL: normalized growth
Form: value (number only, do not type unit).

query: Request the reported normalized growth associated with CCOC(=O)c1oc2c(OC)c(O)cc(O)c2c(=O)c1-c1cc(OC)c(OC)c(OC)c1
result: 0.974

query: Request the reported normalized growth associated with CC1(C)C(=O)C=C[C@@]2(C)C1=C(O)C(=O)[C@]1(C)C2CC[C@@]2(C)[C@H](c3ccoc3)C[C@H]3O[C@]321 (stereo partly specified)
result: 0.871

---

experiment: chemical genetic growth profiling, strain panel (AID 1159580); details: S. cerevisiae deletion strains, growth OD, locus YNL248C, strain rpa49, active compounds read low
Out of some 5,500 compounds screened, about 2,000 (36%) were called active. Roughly 18% stayed inconclusive and do not appear here. The list shows a part of the results.
Each entry below carries its reported normalized growth.
Form: value (number only, do not type unit).

# count of solved cases: 8
query: Request the reported normalized growth associated with O=[N+]([O-])c1ccc(O)c([N+](=O)[O-])c1
result: 0.937

query: Request the reported normalized growth associated with CCCCC1=NC2(CCCC2)C(=O)N1Cc1ccc(-c2ccccc2-c2nn[nH]n2)cc1
result: 1.04

query: Request the reported normalized growth associated with CN(C)CCOc1ccc(/C(=C(/CCCl)c2ccccc2)c2ccccc2)cc1
result: 0.166

query: Request the reported normalized growth associated with Cc1ccc2c(Cl)cc(Cl)c(O)c2n1
result: 1.01

query: Request the reported normalized growth associated with CC(=O)/C(=C\c1ccccc1)CC(=O)O
result: 0.982

query: Request the reported normalized growth associated with CCCC(C)C1(CC)C(=O)NC(=O)NC1=O (centres undefined)
result: 1

query: Request the reported normalized growth associated with CNC[C@@H](O)c1ccc(O)c(O)c1
result: 1.02

query: Request the reported normalized growth associated with COc1cc2c(c(OC)c1OC)-c1ccc(OC)c(=O)cc1[C@@H](NC(C)=O)CC2
result: 0.947

Please turn your attention to the following entry.
query: Request the reported normalized growth associated with CC(C)(C)NC[C@@H](O)COc1nsnc1N1CCOCC1
result: 1.02

---

Each entry below carries its reported normalized growth.
assay: chemical genetic growth profiling, strain panel (AID 1159580);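 further: tested at 20 µM; growth read once vehicle control cultures reached saturation at 30 °C; 1 = growth at the plate median or of vehicle wells; lower values mean less growth of the strain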; details: S. cerevisiae deletion strains, growth OD, locus YCR088W, strain abp1, active compounds read low
In all, about 5,500 compounds went through this assay and about 2,000 (36%) were called active. Inconclusive results (about 18%) are left out. Some of the results follow.
Form: value (number only, do not type unit).

# count of solved cases: 6
query: Request the reported normalized growth associated with COC(=O)C[C@H]1C(C)(C)C(=O)[C@@H]2CC3=C4CC(=O)O[C@@H](c5ccoc5)[C@]4(C)CCC3[C@@]1(C)C2=O (some centres not stated)
result: 0.988

query: Request the reported normalized growth associated with O=C(O)CF
result: 1.02

query: Request the reported normalized growth associated with CCN(CC)CCOc1ccc2c(c1)C(=O)c1cc(OCCN(CC)CC)ccc1-2
result: 0.984

query: Request the reported normalized growth associated with Nc1ccc(S(=O)(=O)Nc2ccc(Cl)nn2)cc1
result: 0.987

query: Request the reported normalized growth associated with COc1c2c(cc3c1OCO3)CCN(C)C2
result: 1.01

query: Request the reported normalized growth associated with CCCC(C)C1(CC)C(=O)N=C(S)NC1=O (configuration not stated)
result: 0.984

Further cases:
query: Request the reported normalized growth associated with CN/C(=C\[N+](=O)[O-])NCCSCc1ccc(CN(C)C)o1
result: 0.976

query: Request the reported normalized growth associated with NCC(O)c1ccc(O)cc1 (configuration not stated)
result: 0.993

query: Request the reported normalized growth associated with Nc1ccc(S(=O)(=O)Nc2ccccn2)cc1
result: 1

query: Request the reported normalized growth associated with NC[C@H](O)c1ccc(O)c(O)c1
result: 1.01

query: Request the reported normalized growth associated with NC(=NCCC[C@H](N)C(=O)O)NC(CCC(=O)O)C(=O)O (some centres not stated)
result: 1.01

---

assay: chemical genetic growth profiling, strain panel (AID 1159580);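 further: tested at 20 µM; growth read once vehicle control cultures reached saturation at 30 °C; 1 = growth at the plate median or of vehicle wells; lower values mean less growth of the strain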; conditions: S. cerevisiae deletion strains, growth OD, locus YPL256C, strain CLN2, active compounds read low
Screen size: about 5,500 compounds; about 2,000 (36%) were called active. Not shown: some 18% with an inconclusive outcome. Some of the results follow.
normalized growth strictly less than 1 = satisfied. Otherwise not satisfied.

// known answers, use as guide
query: I wonder whether CCOc1ccc(/C=C(\C)[N+](=O)[O-])cc1OC has normalized growth below 1. Can you tell?
result: satisfied

query: I wonder whether Nc1ccc(S(=O)(=O)Nc2ccc(Cl)nn2)cc1 has normalized growth below 1. Can you tell?
result: satisfied

query: I wonder whether FC(F)(F)c1cccc(NC(=S)Nc2ccccc2)c1 has normalized growth below 1. Can you tell?
result: not satisfied

query: I wonder whether O=C(O)C1=CCNCC1 has normalized growth below 1. Can you tell?
result: not satisfied

query: I wonder whether C=CCOc1ccc(/C=C/[N+](=O)[O-])cc1 has normalized growth below 1. Can you tell?
result: satisfied

Now take the following compound into account.
query: I wonder whether Cc1ccc(S(=O)(=O)CCSC2=CC(=O)CC(C)(C)S2)cc1 has normalized growth below 1. Can you tell?
result: not satisfied

---

assay: chemical genetic growth profiling, strain panel (AID 1159580);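 further: tested at 20 µM; growth read once vehicle control cultures reached saturation at 30 °C; 1 = growth at the plate median or of vehicle wells; lower values mean less growth of the strain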; details: S. cerevisiae deletion strains, growth OD, locus YOR184W, strain ser1
About 2,000 (36%) of roughly 5,500 compounds were called active. Not shown: some 18% with an inconclusive outcome. Cut-off read from the data, not from the text of the source: active = normalized growth mostly below about 0.91 (no sharp cut-off); inconclusive = no clear call, values can overlap the other calls; inactive = mostly above about 0.92. The list shows a part of the results.
// classify into class 1 (active), class 0 (inactive)

// known answers, use as guide
query: What did the test return for CCN(CC)CCOc1ccc(/C(=C(\Cl)c2ccccc2)c2ccccc2)cc1 ?
result: class 1

query: What did the test return for C=CC(C1=CC(=O)C(OC)=CC1=O)c1ccccc1 (configuration not stated) ?
result: class 1

query: What did the test return for COC(=O)Oc1ccccc1C(=O)O ?
result: class 0

query: What did the test return for CCCCC1(COC(=O)CCC(=O)O)C(=O)N(c2ccccc2)N(c2ccccc2)C1=O ?
result: class 0

query: What did the test return for Nc1ncnc2c1ncn2C1C[C@H](O)[C@@H](CO)O1 (some centres not stated) ?
result: class 0

query: What did the test return for O=C(O)c1ccccc1Nc1cccc(C(F)(F)F)c1 ?
result: class 1

query: What did the test return for Nc1nc2ncc(C(=O)O)nc2c(=O)[nH]1 ?
result: class 0

query: What did the test return for C=CC(C1=CC(=O)C(OC)=CC1=O)c1ccc(OC)cc1 (configuration not stated) ?
result: class 1

Now take the following compound into account.
query: What did the test return for CC1(C)CC2C1(O)CCC1(C)C=CC(O)C21CO (configuration not stated) ?
result: class 0
